# testDescription: NCI Yeast Anticancer Drug Screen. Data for the rad18 strain (AID 177)
# condition: S. cerevisiae rad18 mutant growth inhibition; at 33.0 µM
# Procedure: Growth inhibition of yeast strains with defined genetic alterations is measured as a screen for potential anti-cancer activity. Selected strains with alterations in DNA damage repair or cell cycle control were exposed to compounds and growth inhibition was measured relative to vehicle treated controls. The strain used in this assay is rad18
About 79,000 compounds went through this panel and 15% of them were active in at least one assay; those are over-represented in the sample as a whole. Calls of active or inactive are those of the source. Rule as the data show it: active = growth inhibition above about 70%; inactive = the rest.
One label from this list, please: active, inactive

Worked examples, 10 compounds total:
Which outcome was assigned to `O=C1c2ccccc2C(=O)c2cc(S(=O)(=O)Nc3ccccc3)ccc21` in this test? inactive

Record request — test call for `Nc1cc(S(N)(=O)=O)ccc1SSc1ccc(S(N)(=O)=O)cc1N` inactive

I would be grateful if you could indicate the recorded call for `O=C1C=CC(=Nc2ccccc2)c2ccccc21` . active

What outcome does the record of this test show for `COc1cc2c(cc1C[N+](C)(C)CSc1ccccc1)-c1ccccc1CC2` ? active

Which outcome was entered for the compound `CCCCCCCCCCCCCCCCCCNC(=S)/N=C\C1=C(O)c2ccccc2C1=O` in this test? inactive

Could you please tell me the result logged for `O=S(=O)(N/N=C/c1cccc(Cl)c1)c1ccccc1` in this assay? active

Hi team, can someone confirm the assay call for `N#C/C(=C\c1ccccc1)c1ccccc1F` ? inactive

Kindly provide the recorded test outcome for the following compound: `Nc1ccc2c(=S)c3ccccc3[nH]c2c1` inactive

Short answer needed: outcome of this test for `Cc1cc(O)c2c(c1)C(=O)C=C(Br)C2=O` ? active

Per the assay record, what outcome was assigned to `NNC(=S)Nc1cccc2ccccc12` ? inactive

New cases:
Please let me know the test result on file for `Clc1nc(C(Cl)Cl)nc2sc3c(c12)CCCC3` . inactive

Dear colleague, could you share the recorded outcome for `CCCCC(=O)c1c(O)nc2sccn2c1=O` when you have a moment? active

What outcome does the record of this test show for `Cc1ccc(S(=O)(=O)N/N=C/C2(c3ccccc3)c3ccccc3-c3ccccc32)cc1` ? active

Just curious, what result did `O=C(/C=C/c1cccc(Br)c1)c1ccc(Cl)cc1` get here? inactive

Could you please tell me the result logged for `CO[C@@]12[C@H](COC(N)=O)C3=C(C(=O)C(C)=C(N)C3=O)N1C[C@@H]1N[C@@H]12` in this assay? active

For this compound, state the assay outcome: Cc1ccc(S(=O)(=O)Nc2ccc3c(c2)C(O)c2ccccc2-3)cc1 (stereo unspecified) active

====

molecules and their reported growth inhibition
# testDescription: NCI Yeast Anticancer Drug Screen. Data for the bub3 strain (AID 167)
# condition: S. cerevisiae bub3 mutant strain, at 1.2 µM, stronger effect = higher value
# Procedure: Growth inhibition of yeast strains with defined genetic alterations is measured as a screen for potential anti-cancer activity. Selected strains with alterations in DNA damage repair or cell cycle control were exposed to compounds and growth inhibition was measured relative to vehicle treated controls. The strain used in this assay is bub3
Compounds without any hit were thinned out: in the full panel of roughly 79,000, 15% have a hit.
Report the value in % with no unit label.

See these solved cases before continuing.
Any idea what its growth inhibition is? The molecule is `[N-]=[N+]=NC(c1ccccc1)(c1ccccc1)c1ccccc1` 3

Name the recorded growth inhibition for `COc1cc(N)ccc1Nc1c2ccccc2nc2ccccc12` . 8

What growth inhibition value was documented for this molecule, `O=C1c2ccccc2C(=O)c2cc(S(=O)(=O)Nc3ccccc3)ccc21` ? 0

Query: growth inhibition; subject: `CCCCCC(=O)c1ccc(O)cc1O` 8

For `Oc1ccc(C=Nc2ccccc2O)cc1` , what is its reported growth inhibition? 75

Continuing:
For `OCCN(CCO)c1ccc2c(c1)Cc1ccccc1-2` , what is its reported growth inhibition? -9

Quick one: growth inhibition of `CCOC(=O)c1csc(Br)n1` ? -5

# growth inhibition lookup, item O=S1(=O)c2ccccc2N=C(c2ccccc2Cl)CC1c1ccc(F)cc1 (stereo not drawn) -4

====

# testDescription: NCI Yeast Anticancer Drug Screen. Data for the wt1 strain (AID 149);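 also: 0% = growth of vehicle-treated wt1 cultures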
# condition: S. cerevisiae wt1 strain (SPY 50644) growth inhibition; at 3.7 µM; stronger effect = higher value
Compounds without any hit were thinned out: in the full panel of roughly 79,000, 15% have a hit.
measurementType: growth inhibition (%)
Please give a number only; it is taken to be in %.

Sample records with growth inhibition:
What does the record list as growth inhibition for `COC(=O)c1ccc2c(c1)Cc1ccccc1-2` ? -5

Tell me the measured growth inhibition of `CCOC(=O)c1csc(Br)n1` , please. -3

# get_value(readout='growth inhibition', item= `CCCCCCCCCCCc1nc(N)n[nH]1` ) -4

---
Field request: growth inhibition | item: `C=Cc1cnc([N+](=O)[O-])n1C` 21

Please look up its growth inhibition: `Cn1c2nc3ccccc3c-2nc2ccccc21` 29

Can you look up the measured growth inhibition of `CSc1s[s+]c(SC)c1-c1ccccc1` for me? 15

Consider the compound COc1ccc(N2C(=O)CC(Cl)C2=O)cc1 (configuration not stated) and give its measured growth inhibition. 10

====

Reported growth inhibition values follow for various compounds
# testDescription: NCI Yeast Anticancer Drug Screen. Data for the rad14 strain (AID 159);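 also: 0% = growth of vehicle-treated control cultures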
# condition: S. cerevisiae rad14 strain growth inhibition; at 3.7 µM; stronger effect = higher value
# Protocol: Growth inhibition of yeast strains with defined genetic alterations is measured as a screen for potential anti-cancer activity. Selected strains with alterations in DNA damage repair or cell cycle control were exposed to compounds and growth inhibition was measured relative to vehicle treated controls. The strain used in this assay is rad14
The panel holds about 79,000 compounds, 15% with a hit somewhere; the sample as a whole holds those more often. The source made the active and inactive calls. Cut-off read from the data, not from the text of the source: active = growth inhibition above about 70%; inactive = the rest.

Recorded growth inhibition, per entry:
Consider the compound `CC[C@@]1(OC(=O)CN(C)C)C(=O)OCc2c1cc1n(c2=O)Cc2cc3c(N)cccc3nc2-1` and give its measured growth inhibition. 0% (inactive)

Report growth inhibition for `COc1ccc(C(C#N)=C2C=CC(=NO)C=C2)cc1` please. 19% (inactive)

Which value of growth inhibition has been reported for `O=Nc1ccc(Nc2ccccc2)cc1` in the records? -28% (inactive)

For the compound shown here, `CC(C)c1cccc(O)c(=O)c1` , give the reported growth inhibition. 4% (inactive)

Next:
Would you kindly share the measured growth inhibition for CCC(=O)N(c1ccccc1)C(C)CN1CCC(O)(c2cccc(C(F)(F)F)c2)CC1 (stereo not drawn) ? 18% (inactive)

Suppose we examine the compound `CC(=O)N1C(=O)/C(=C\C(=O)c2ccc([N+](=O)[O-])cc2)c2ccccc21` ; what growth inhibition value has been reported? 9% (inactive)

====

Measured growth inhibition by item
# testDescription: NCI Yeast Anticancer Drug Screen. Data for the CLN2oe strain (AID 163);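 also: 0% = growth of vehicle-only control cultures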
# condition: S. cerevisiae CLN2oe strain, at 1.2 µM, stronger effect = higher value
# Experimental: Growth inhibition of yeast strains with defined genetic alterations is measured as a screen for potential anti-cancer activity. Selected strains with alterations in DNA damage repair or cell cycle control were exposed to compounds and growth inhibition was measured relative to vehicle treated controls. The strain used in this assay is CLN2oe
The panel holds about 79,000 compounds, 15% with a hit somewhere; the sample as a whole holds those more often.
Expressed in %, but write only the number.

If you can, please state the reported growth inhibition value of `NCc1c(O)ccc2ccccc12` . -6

Others:
Request the reported growth inhibition associated with `Nc1cc(F)cc2c1-c1ccc(F)cc1C2` -10

I have this compound here, `CN(NC(=O)/C(=C/c1ccc(O)cc1)NC(=O)c1ccccc1)c1ccnc2cc(Cl)ccc12` , and I need its recorded growth inhibition. 6

====

# testDescription: NCI Yeast Anticancer Drug Screen. Data for the mgt1 strain (AID 153)
# condition: S. cerevisiae mgt1 mutant growth inhibition; at 100.0 µM; stronger effect = higher value
This is part of a sample that, as a whole, favours compounds with a hit. Of some 79,000 tested, about 15% had one in any assay.
growth inhibition values, listed per item
Reply numerically in %, unit not repeated.

Endpoint output: growth inhibition of `O=C1c2c(O)cccc2-c2nn(CCNCCO)c3ccc(NCCNCCO)c1c23` . Value? 2

Quick one: growth inhibition of `O=c1[nH]cc(/C=N\Nc2ccccc2)c(=O)[nH]1` ? 46

Entry under review: `Cc1cc(Cl)nc2nc(Cl)c(N)cc12` . Reported growth inhibition? 87

Requested read-out: growth inhibition. Entry: `C=C(C)[C@@H]1CCc2c(O)c(O)c(=O)cc(C)c2C1` 98

Entry `c1ccc2c(c1)Cn1c-2nc2ccccc21` has what growth inhibition? 98

May I ask what growth inhibition has been recorded for S=C(S)NCC1CCC(CNC(=S)S)CC1 (configuration not stated) ? 89

Fill in: growth inhibition of `NC(N)=N/N=C/c1cc(Cl)cc(Cl)c1O` is ___ 99

What value of measured growth inhibition is listed for `N#C/C(=C1C=C(Br)/C(=N\O)C=C\1Cl)c1cccc2ccccc12` ? 97

GET /values?readout=growth inhibition&item= `Clc1cc(-c2ccccc2)nc2ccccc12` 97

What measured growth inhibition goes with `Cc1ccc(Nc2n[nH]c(=S)s2)cc1` ? 94

More entries:
What value of growth inhibition has been recorded for this entry: `COc1cc(NCc2ccc3nc(N)nc(N)c3c2C)cc(OC)c1OC` 37

# get_value(readout='growth inhibition', item= Clc1c(Cl)c(Cl)c2c(nnn2C2CCCO2)c1Cl (configuration not stated) ) 75
